Values were extracted from patent US20220175942A1.

Target: T1, CCL17_HUMAN (human, UniProt Q92583 24-94)
T1 chain: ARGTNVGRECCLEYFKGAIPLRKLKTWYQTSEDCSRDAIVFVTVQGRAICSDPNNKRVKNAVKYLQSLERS
Assay: BLI
assay endpoint: pKd
Answers are plain numbers, as −log10 of the molar value.

# binder, assay endpoint, meas value
measured = [
    ("P1243_AMBAM (other) RNHTEDNSTEYYDYEEARCACPARHLNNTNGTVLKLLGCHYFCNGTLCTAPDGYPCYNLTAQQVRTLTTYPNTSCAVGVCMKGTCVKNGTMEQCFKTP", "pKd", 9.13),
]

input: Given the binder P1182_AMBMA (other) EPKDDNDYGGGCPFVVLGNGTHAKPAGCSHLCNGAPETLDNIECYNVTEEVAKRMTPGIPYACWLGWCNKGECKRGNRTEVCYRGSEEE , what is its reported pKd?
output: 7.48
